// reported melting point for each item listed

Would you please look over these solved cases?
COc1cc(Nc2ncc3c(n2)C(C(=O)N(C)C)CCC3)ccc1-n1cnc(C)c1 (centres unmarked) :: 150 to 152 °C
COc1cc(Nc2ncc3c(n2)C(c2ccc(Cl)cc2Cl)CCC3)ccc1-n1cnc(C)c1 (centres unmarked) :: 256 to 258 °C
COc1cc(Nc2nc3c(s2)CCCC3(C)c2ccccc2)ccc1-n1cnc(C)c1 (centres unmarked) :: 123 to 126 °C
COC(=O)C1CC2(Cc3cnc(Nc4ccc(-n5cnc(C)c5)c(OC)c4)nc31)OCCO2 (centres unmarked) :: 180 to 182 °C
COc1cc(Nc2ncc3c(n2)C(N2CCOCC2)CCC3)ccc1-n1cnc(C)c1 (centres unmarked) :: 214 to 216 °C

*Q* Which melting point value is on record for CCCC1(c2cccc(OC)c2)CCCc2cnc(Nc3ccc(-n4cnc(C)c4)c(OC)c3)nc21 (centres unmarked) ?
*A* 166 to 168 °C

*Q* // repeat for COc1cc(Nc2ncc3c(n2)C(C)(c2ccccc2)CCC3)ccc1-n1cnc(C)c1 (centres unmarked) and report
*A* 207 to 209 °C

* * *

- Tested on: γ-secretase
- method_summary: Cellular γ-secretase assay (Aβ42 secretion)
- Format: cell-based
- condition_parameters: inhibition of Aβ42 secretion; human neuroglioma H4 cells overexpressing human APP; 22 hrs incubation; read-out: EC50 in vitro
Counter-ions that a name gives are not always drawn.
Each record is given y if its reported EC50 is strictly below 0.3 µM. Records at or above 0.3 µM are given n.

Observe how each entry below is paired with its result.
Cc1cn(-c2ccc(Nc3nc4c(s3)CCCC4c3ccc(Cl)cc3Cl)cc2F)cn1 (stereo not drawn) :: n
Cc1ncc(-c2ccc(Nc3nc4c(s3)CCCC4c3ccccc3)cc2)o1 (stereo not drawn) :: y
COc1cc(Nc2nc3c(s2)CCCC3c2ccccc2Cl)ccc1-n1cnc(C)c1 (stereo not drawn) :: y
COc1cc(Nc2nc3c(s2)CCCC3c2ccc(Cl)c(C(F)(F)F)c2)ccc1-n1cnc(C)c1 (stereo not drawn) :: y
COc1cc(Nc2ncc3c(n2)C(c2cc(F)c(F)c(F)c2)CCC3)ccc1-n1cnc(C)c1 (stereo not drawn) :: y
Cc1cn(-c2ccc(Nc3nc4c(s3)CCCC4c3ccccc3)cc2F)cn1 (stereo not drawn) :: y
COc1cc(Nc2nc3c(s2)CCCC3c2ccccc2)ccc1-n1cnc(C)c1 (stereo not drawn) :: y
COc1cc(Nc2ncc3c(n2)C(c2ccc(Cl)cc2)CCC3)ccc1-n1cnc(C)c1 (stereo not drawn) :: n
Cc1cn(-c2ccc(Nc3nc4c(s3)CCCC4c3ccccc3)cc2O)cn1 (stereo not drawn) :: y
COc1cc(Nc2nc3c(s2)CCCC3c2cc(F)ccc2F)ccc1-n1cnc(C)c1 (stereo not drawn) :: y

*Q* Hello, is EC50 of the following compound strictly smaller than 0.3 µM? COc1ccccc1C1CCCc2sc(Nc3ccc(-n4cnc(C)c4)c(OC)c3)nc21 (stereo not drawn)
*A* y

*Q* What would you report for COc1cc(Nc2nc3c(s2)CCCC3c2cc(C(F)(F)F)cc(C(F)(F)F)c2)ccc1-n1cnc(C)c1 (stereo not drawn) ?
*A* y

*Q* What about COc1cc(Nc2nc3c(s2)CCCC3c2ccc(Cl)cc2Cl)ccc1-n1cnc(C)c1 (stereo not drawn) ?
*A* y

*Q* Cool, now COc1cc(Nc2ncc3c(n2)C(c2ccccc2)CN(C(C)C)C3)ccc1-n1cnc(C)c1 (stereo not drawn)
*A* n

*Q* Next record, please: COc1cc(Nc2ncc3c(n2)C(c2ccccc2)CNC3)ccc1-n1cnc(C)c1 (stereo not drawn) [Example 41, hydrochloride]
*A* n

* * *

melting point overview

Please review the following examples before continuing.
CCOC(=O)C1CCCc2cnc(Nc3ccc(-n4cnc(C)c4)c(OC)c3)nc21 (stereo not shown) :: 162 to 164 °C
COc1cc(Nc2ncc3c(n2)C(CC#N)(c2ccc(Cl)cc2)CCC3)ccc1-n1cnc(C)c1 (stereo not shown) :: 156 to 158 °C
Cc1cn(-c2ccc(Nc3nc4c(s3)CCCC4(C)c3ccccc3)cc2F)cn1 (stereo not shown) :: 160 to 164 °C

*Q* State the recorded melting point for this entry: COc1cc(Nc2ncc3c(n2)C(c2cccc(C(F)(F)F)c2)CCC3)ccc1-n1cnc(C)c1 (stereo not shown)
*A* 213 to 215 °C

* * *

Measured EC50, listed per entry.
- System: γ-secretase
- method_summary: Cellular γ-secretase assay (Aβ42 secretion)
- Format: cell-based
- condition_parameters: inhibition of Aβ42 secretion; human neuroglioma H4 cells overexpressing human APP; 22 hrs incubation; read-out: EC50 in vitro
- Method: Cellular γ-Secretase Assay […] After incubation for 22 hrs at 37° C., 5% CO2, 50 μl supernatant was transferred into round-bottom 96-well polypropylene plates for detection of Aβ42. […] Assay plates were incubated on a shaker for 3 hrs at room temperature and finally read in the Bioveris M8 Analyser according to the manufacturer's instructions (Bioveris). EC50 values for inhibition of Aβ42 secretion were calculated by nonlinear regression fit analysis using XLfit 4.0 software (IDBS).
Only the number, expressed in nM, is required.

For orientation, consider the following solved cases.
COc1cc(Nc2nc3c(s2)CCCC3c2cc(F)cc(F)c2)ccc1-n1cnc(C)c1 (stereo not drawn) [Example 28] :: 120
COc1cc(Nc2nc3c(s2)CN(Cc2ccccc2)CC3c2ccccc2Cl)ccc1-n1cnc(C)c1 (stereo not drawn) [Example 23] :: 70
c1ccc(C2CCCc3sc(Nc4ccc(-c5ccncc5)cc4)nc32)cc1 (stereo not drawn) [Example 94] :: 320

*Q* Can you look up the measured EC50 of COc1cc(Nc2ncc3c(n2)C(c2ccccc2)CCC3)ccc1-n1cnc(C)c1 (stereo not drawn) [Example 39] for me?
*A* 480

*Q* What do you get for COc1ccccc1C1CCCc2sc(Nc3ccc(-n4cnc(C)c4)c(F)c3)nc21 (stereo not drawn) [Example 35] ?
*A* 340

*Q* Again, but for Cc1cn(-c2ccc(Nc3nc4c(s3)CCCC4c3ccc(C)c(C(F)(F)F)c3)cc2F)cn1 (stereo not drawn) [Example 32]
*A* 260

*Q* Entry COc1cc(Nc2nc3c(s2)CCCC3c2cc(Cl)cc(Cl)c2)ccc1-n1cnc(C)c1 (stereo not drawn) [Example 27] please
*A* 70

*Q* Repeat for the following molecule: Cc1cn(-c2ccc(Nc3ncc4c(n3)C(c3ccc(F)cc3)CCC4)cc2F)cn1 (stereo not drawn) [Example 60]
*A* 500

*Q* // query: Cc1cn(-c2ccc(Nc3nc4c(s3)CCCC4c3ccccc3Cl)cc2F)cn1 (stereo not drawn) [Example 33]
*A* 430
